Ref: ChEMBL document CHEMBL1137980

tested_system: Delta-type opioid receptor (Rattus norvegicus, UniProt P33533)
Sequence (P33533 whole entry): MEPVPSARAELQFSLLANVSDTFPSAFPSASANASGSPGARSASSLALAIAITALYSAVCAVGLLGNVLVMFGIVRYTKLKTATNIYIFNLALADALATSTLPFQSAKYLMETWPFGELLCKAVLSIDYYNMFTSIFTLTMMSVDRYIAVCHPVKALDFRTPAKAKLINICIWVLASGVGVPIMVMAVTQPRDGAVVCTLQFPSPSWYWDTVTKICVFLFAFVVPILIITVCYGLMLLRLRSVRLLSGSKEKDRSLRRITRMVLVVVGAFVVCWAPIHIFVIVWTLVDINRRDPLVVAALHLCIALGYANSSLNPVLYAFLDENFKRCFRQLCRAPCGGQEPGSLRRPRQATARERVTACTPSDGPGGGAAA
test_summary: Binding affinity for delta opioid receptor of rat brain
Residues, ends and D or L forms follow the SMILES beside them.
measured_quantity: log10 Ki (log10 of the value in nM)
Reminder: these figures are log10 of reported Ki, in nM before transformation.

Some compounds with known log10 Ki results, for comparison:
compound	value_measured
CCCc1nc([C@@H]2Cc3ccccc3CN2C(=O)[C@@H](N)Cc2ccc(O)cc2)[nH]c1C	1.80
N[C@@H](Cc1ccc(O)cc1)C(=O)N1Cc2ccccc2C[C@H]1C(=O)NCCc1ccccc1 (HELM PEPTIDE1{Y.[Tic].[c1ccc(CCN[*:1])cc1]}$$$$V2.0)	0.72
N[C@@H](Cc1ccc(O)cc1)C(=O)N1Cc2ccccc2C[C@H]1c1nc(-c2ccccc2)c[nH]1	-0.05
CN(C)C(=O)C(CCN1CCC(O)(c2ccc(Cl)cc2)CC1)(c1ccccc1)c1ccccc1 [LOPERAMIDE]	1.70
Cc1[nH]c([C@@H]2Cc3ccccc3CN2C(=O)[C@@H](N)Cc2ccc(O)cc2)nc1-c1ccccc1 (stereo in doubt; 4c)	-0.52

query: Which log10 Ki is reported with Delta-type opioid receptor (Rattus norvegicus, UniProt P33533) for this entry: N[C@@H](Cc1ccc(O)cc1)C(=O)N1Cc2ccccc2C[C@H]1c1nc(-c2ccccc2)c(Br)[nH]1 ?
result: -0.96

query: Okay, and N[C@@H](Cc1ccc(O)cc1)C(=O)N1Cc2ccccc2C[C@H]1c1nc2ccccc2[nH]1 (single isomer, unassigned) ?
result: 1.70

====

tested_system: Mu-type opioid receptor (Cavia porcellus, UniProt P97266)
Sequence (P97266 whole entry): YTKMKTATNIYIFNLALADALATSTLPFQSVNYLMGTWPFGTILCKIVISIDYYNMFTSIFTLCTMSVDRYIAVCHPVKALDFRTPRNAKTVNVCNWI
test_summary: Inhibition of mu opioid receptor mediated GTPgammaS binding to CHO cell membranes
Residues, ends and D or L forms follow the SMILES beside them.
measured_quantity: EC50 (µM)
Expressed in µM, but write only the number.

Some compounds with known EC50 results, for comparison:
compound	measured_quantity	value_measured
Cc1[nH]c([C@@H]2CCCCN2C(=O)[C@@H](N)Cc2ccc(O)cc2)nc1-c1ccccc1	EC50	0.153
N[C@@H](Cc1ccc(O)cc1)C(=O)N1Cc2ccccc2C[C@H]1c1nc(-c2ccccc2)c[nH]1	EC50	2.4

Now look at this entry.
query: Which EC50 is reported with Mu-type opioid receptor (Cavia porcellus, UniProt P97266) for this entry: N[C@@H](Cc1ccc(O)cc1)C(=O)N1Cc2ccccc2C[C@H]1C(=O)NCCc1ccccc1 (HELM PEPTIDE1{Y.[Tic].[c1ccc(CCN[*:1])cc1]}$$$$V2.0) ?
result: 2.12
